test system: E. coli JMI 2671; assay: MIC, antibacterial and synergistic activity; assay type: cell-based; settings: E. coli JMI 2671 (VIM-19 (Cpase)); Aztreonam + inhibitor at 4 µg/mL
quantityKind: MIC Aztreonam + inhibitor

>>> measurement("CCC(=O)NNC(=O)[C@@H]1CC[C@@H]2CN1C(=O)N2OS(=O)(=O)O [Ex. 8]")
"≤0.062 mg/L"
>>> measurement("O=C(NNC(=O)[C@H]1CC[C@H]2CN1C(=O)N2OS(=O)(=O)O)C1CNC1 (stereo in doubt) [Ex. 9]")
"≤0.06 mg/L"
>>> measurement("NCCONC(=O)[C@@H]1CC[C@@H]2CN1C(=O)N2OS(=O)(=O)O [Ex. 3]")
"≤0.062 mg/L"
>>> measurement("CC(=O)NNC(=O)[C@@H]1CC[C@@H]2CN1C(=O)N2OS(=O)(=O)O [Ex. 5]")
"≤0.062 mg/L"

Ask: Given the compound O=C(NO[C@H]1CCCNC1)[C@@H]1CC[C@@H]2CN1C(=O)N2OS(=O)(=O)O [Ex. 2] , what is its reported MIC Aztreonam + inhibitor?
Result: ≤.062 mg/L

Ask: Given the compound O=C(NO[C@H]1CCNC1)[C@@H]1CC[C@@H]2CN1C(=O)N2OS(=O)(=O)O [Ex. 1] , what is its reported MIC Aztreonam + inhibitor?
Result: ≤.062 mg/L

Ask: Given the compound O=C(NNC(=O)[C@H]1CC[C@H]2CN1C(=O)N2OS(=O)(=O)O)C1CC1 (stereo in doubt) [Ex. 7] , what is its reported MIC Aztreonam + inhibitor?
Result: ≤0.062 mg/L

src = patent EP2931723B1
